assay: Solubility of the compound at pH 2.2 by HPLC method; assay type: physicochemical; conditions: buffer
Metric: solubility

C[Si]1(C)CCN(NCc2cc(-c3ccc(Cl)cc3)n(-c3ccc(Cl)cc3)n2)CC1 = 43.2 µM
C[Si]1(C)CCN(Cc2cc(-c3ccc(Cl)cc3)n(-c3ccc(Cl)cc3)n2)CC1 = 42.3 µM
Clc1ccc(-c2cc(CN3CCCCC3)nn2-c2ccc(Cl)cc2)cc1 = 44.6 µM
Cc1c(CN2CC[Si](C)(C)CC2)nn(-c2ccc(Cl)cc2Cl)c1-c1ccc(Cl)cc1 = 40.6 µM
C[Si]1(C)CCN(Cc2nn(-c3ccc(Cl)cc3Cl)c(-c3ccc(Cl)cc3)c2CO)CC1 = 42.5 µM
C[Si]1(C)CCN(C(=O)c2cc(-c3ccc(Cl)cc3)n(-c3ccc(Cl)cc3)n2)CC1 = 0.18 µM

====

Recorded solubility, one value per entry.
experiment: Solubility of the compound at pH 1.2 by HPLC method; format: physicochemical; conditions: buffer
Metric: solubility (µM)

Cc1c(CN2CC[Si](C)(C)CC2)nn(-c2ccc(Cl)cc2Cl)c1-c1ccc(Cl)cc1 = 41
C[Si]1(C)CCN(Cc2cc(-c3ccc(Cl)cc3)n(-c3ccc(Cl)cc3)n2)CC1 = 43
C[Si]1(C)CCN(Cc2nn(-c3ccc(Cl)cc3Cl)c(-c3ccc(Cl)cc3)c2CO)CC1 = 44
C[Si]1(C)CCN(C(=O)c2cc(-c3ccc(Cl)cc3)n(-c3ccc(Cl)cc3)n2)CC1 = 0.16
C[Si]1(C)CCN(NCc2cc(-c3ccc(Cl)cc3)n(-c3ccc(Cl)cc3)n2)CC1 = 43.1
Clc1ccc(-c2cc(CN3CCCCC3)nn2-c2ccc(Cl)cc2)cc1 = 45

====

experiment: Cytotoxicity against human HepG2 cells measured after 48 hrs by MTT assay; type: toxicity, cell-based
Recorded IC50 at 48 h, one value per entry.
Metric: IC50 at 48 h

COc1cccc2c1C(=O)c1c(O)c3c(c(O)c1C2=O)C[C@@](O)(C(=O)CO)C[C@@H]3O[C@H]1C[C@H](N)[C@H](O)[C@H](C)O1 [DOXORUBICIN] = 5.34 µM
C[Si]1(C)CCN(C(=O)c2cc(-c3ccc(Cl)cc3)n(-c3ccc(Cl)cc3)n2)CC1 = 59 µM
Cc1c(CN2CCCCC2)nn(-c2ccc(Cl)cc2Cl)c1-c1ccc(Cl)cc1 = > 100 µM
C[Si]1(C)CCN(Cc2nn(-c3ccc(Cl)cc3Cl)c(-c3ccc(Cl)cc3)c2CO)CC1 = 30.4 µM
C[Si]1(C)CCN(Cc2cc(-c3ccc(Cl)cc3)n(-c3ccc(Cl)cc3)n2)CC1 = 21.4 µM
Cc1c(CN2CCN(C)CC2)cc(-c2ccc(Cl)cc2)n1-c1ccc(Cl)cc1 = 71 µM

====

Recorded Stability, one value per entry.
assay: Metabolic stability in mouse liver microsomes at 1 or 50 uM measured after 30 to 60 mins in presence of cofactor by LC-MS/MS analysis; format: ADME
Metric: Stability (%)

C[Si]1(C)CCN(Cc2nn(-c3ccc(Cl)cc3Cl)c(-c3ccc(Cl)cc3)c2CO)CC1 = 3.7
C[Si]1(C)CCN(NCc2cc(-c3ccc(Cl)cc3)n(-c3ccc(Cl)cc3)n2)CC1 = 100
C[Si]1(C)CCN(C(=O)c2cc(-c3ccc(Cl)cc3)n(-c3ccc(Cl)cc3)n2)CC1 = 3.9
Cc1c(CN2CC[Si](C)(C)CC2)nn(-c2ccc(Cl)cc2Cl)c1-c1ccc(Cl)cc1 = 9.2
C[Si]1(C)CCN(Cc2cc(-c3ccc(Cl)cc3)n(-c3ccc(Cl)cc3)n2)CC1 = 6.3
Clc1ccc(-c2cc(CN3CCCCC3)nn2-c2ccc(Cl)cc2)cc1 = 26
